# Tested on: Vero monkey kidney cells
# PROCEDURE DETAILS: In vitro toxicity, MTS assay in Vero cells
# Assay type: cell-based
# CONDITION NOTES: IC50 Vero cells : MIC
OBSERVED PROPERTY: SI (selectivity index, ratio of IC50:MIC)
Reply: number alone, nothing else.

These recorded examples may help you get a feel for the data.
{"COMPOUND": "C1CCC2CC(N3CCCN(C4CCC5CCCCC5C4)CC3)CCC2C1 (stereo not drawn)", "SYSTEM NAME": "Vero monkey kidney cells", "MEASURED NUMBER": 6.92}
{"COMPOUND": "c1ccc(CN2CCN(C3C4CC5CC(C4)CC3C5)CC2)cc1 (stereo not drawn)", "SYSTEM NAME": "Vero monkey kidney cells", "MEASURED NUMBER": 7.76}
{"COMPOUND": "CC1(C)C2CC=C(CN3CCCN(CC4=CCC5CC4C5(C)C)CC3)C1C2", "SYSTEM NAME": "Vero monkey kidney cells", "MEASURED NUMBER": 14.1}

Short answer for C1CN(C2C3CC4CC(C3)CC2C4)CCN(C2C3CC4CC(C3)CC2C4)C1 (stereo not drawn) : SI (selectivity index, ratio of IC50:MIC) was 16.92

Short answer for "CCOc1ccccc1CN1CCCN(Cc2ccccc2OCC)CC1" : SI (selectivity index, ratio of IC50:MIC) was 18.21

Short answer for "CCOc1ccccc1CN1CCN(c2ccccc2F)CC1" : SI (selectivity index, ratio of IC50:MIC) was 6.08
